Ref: patent US20240122878A1

TESTED TARGET: hERG (Homo sapiens, UniProt Q12809)
Sequence (Q12809 whole entry): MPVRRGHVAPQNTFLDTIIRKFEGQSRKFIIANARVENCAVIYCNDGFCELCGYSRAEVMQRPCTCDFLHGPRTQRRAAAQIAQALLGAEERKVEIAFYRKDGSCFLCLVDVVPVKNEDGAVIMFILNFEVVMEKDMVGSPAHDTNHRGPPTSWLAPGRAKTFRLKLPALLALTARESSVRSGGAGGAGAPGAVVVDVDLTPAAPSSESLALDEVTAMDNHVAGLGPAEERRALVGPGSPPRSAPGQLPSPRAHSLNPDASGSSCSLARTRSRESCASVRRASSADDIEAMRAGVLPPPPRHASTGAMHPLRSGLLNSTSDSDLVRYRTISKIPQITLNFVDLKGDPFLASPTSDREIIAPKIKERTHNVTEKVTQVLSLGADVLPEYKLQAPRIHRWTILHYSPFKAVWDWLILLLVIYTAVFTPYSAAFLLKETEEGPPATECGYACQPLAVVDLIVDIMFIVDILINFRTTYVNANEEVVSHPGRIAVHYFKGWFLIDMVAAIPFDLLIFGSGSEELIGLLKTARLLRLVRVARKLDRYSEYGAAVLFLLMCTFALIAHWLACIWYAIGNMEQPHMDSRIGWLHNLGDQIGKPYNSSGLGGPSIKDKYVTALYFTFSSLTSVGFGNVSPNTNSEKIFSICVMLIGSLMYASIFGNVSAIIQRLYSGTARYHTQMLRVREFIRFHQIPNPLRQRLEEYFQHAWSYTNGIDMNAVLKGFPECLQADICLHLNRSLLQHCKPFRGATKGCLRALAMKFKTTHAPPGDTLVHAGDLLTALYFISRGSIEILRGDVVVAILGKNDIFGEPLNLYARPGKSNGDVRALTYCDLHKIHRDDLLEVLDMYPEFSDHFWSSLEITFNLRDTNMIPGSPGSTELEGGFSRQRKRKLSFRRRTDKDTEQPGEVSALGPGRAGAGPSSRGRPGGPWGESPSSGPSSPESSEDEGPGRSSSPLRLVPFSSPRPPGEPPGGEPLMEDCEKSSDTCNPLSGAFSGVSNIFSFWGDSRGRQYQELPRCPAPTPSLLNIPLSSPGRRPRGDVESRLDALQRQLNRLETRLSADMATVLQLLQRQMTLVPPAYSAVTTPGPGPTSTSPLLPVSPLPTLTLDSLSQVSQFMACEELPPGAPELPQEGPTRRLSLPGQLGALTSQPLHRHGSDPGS
TEST NAME: Non GLP hERG channel current study (manual patch)
Format: cell-based
EXPERIMENTAL SETUP: human; 10 μM; read-out: Inhibition of hERG current (Mean, SEM; n=4)
Description: The objective of this study was to examine the in vitro effects of three test articles on the hERG (human ether-a-go-go-related gene) channel current (a surrogate for the rapidly activating delayed rectifier cardiac potassium current, IKr). The concentration-response relationship was evaluated at near-physiological temperature (35-37° C.
MEASURED METRIC: inhibition at 10 µM

Just so you know, measured inhibition at 10 µM for CCC(=O)C(CC(C)N(C)C)(c1ccccc1)c1ccccc1 (racemic) [racemic methadone] came out at 86.9%

====

TEST NAME: Equilibrium solubility study
EXPERIMENTAL SETUP: 37 °C, pH 4.5, aqueous buffer, thermodynamic from solid, Equilibrium solubility, replicates, pH 4.5, 37° C., individual replicates
Counter-ions that a name gives are not always drawn.
MEASURED METRIC: solubility thermodynamic (mg/mL)
Dear colleague, please return just the value in mg/mL, with no unit written.

The recorded solubility thermodynamic for entry CCC(=O)C(C[C@H](C)N(C)C)(c1ccccc1)c1ccccc1 [esmethadone HCl] equals 67

====

Quick reference: Papp A→B of the listed items.
TEST NAME: in vitro
EXPERIMENTAL SETUP: human, Caco-2, pH 6.5, Permeability, Mean, A-B, Caco-2, pH 6.5/7.4, 10 μM
Give the quantity in ×10⁻⁶ cm/s, number only.

CC(C)NCC(O)COc1cccc2ccccc12 (centres unmarked) [Propranolol] | 40.9

Now consider the entry below.
Per the records, this compound ( CC(CCc1ccccc1)NCC(O)c1ccc(O)c(C(N)=O)c1 (centres unmarked) [Labetalol] ) has Papp A→B equal to 19.6

====

TEST NAME: in vitro
EXPERIMENTAL SETUP: human, Caco-2, Percent Recovery, Mean (SD), B-A, 1 μg/mL
Structures can show the parent of a compound that is named as a salt.
MEASURED METRIC: recovery (%)
Record the value in %, omitting the unit from your answer.

The compound CCC(=O)C(C[C@H](C)N(C)C)(c1ccccc1)c1ccccc1 [esmethadone HCl] showed recovery equal to 60

====

TEST NAME: in vitro
EXPERIMENTAL SETUP: human, Caco-2, Percent Recovery, Rep. 1-3, A-B, 10 μM
Reported recovery values follow for various compounds
Dear colleague, please return just the value in %, with no unit written.

// solved cases for recovery follow
CNC(=C[N+](=O)[O-])NCCSCc1ccc(CN(C)C)o1 | 100
COc1cc2c(c(OC)c1OC)-c1ccc(OC)c(=O)cc1[C@@H](NC(C)=O)CC2 | 88
CC(CCc1ccccc1)NCC(O)c1ccc(O)c(C(N)=O)c1 (stereo not shown) | 118

From here, focus on the item given below.
Looking up CC(C)NCC(O)COc1cccc2ccccc12 (stereo not shown) , I found its recovery recorded as 106

====

TEST NAME: Phase 1 pharmacokinetics of immediate release esmethadone (Bernstein 2019)
Assay type: in vivo
EXPERIMENTAL SETUP: human, plasma; 25 mg oral daily dosing ×10 days; read-out: Steady state Cmax
MEASURED METRIC: Cmax (ng/mL)
Numeric only. Scale: ng/mL

// Cmax value for CCC(=O)C(C[C@H](C)N(C)C)(c1ccccc1)c1ccccc1 [esmethadone] : 273

====

TEST NAME: Equilibrium solubility study
EXPERIMENTAL SETUP: 37 °C, pH 1.2, simulated gastric fluid, thermodynamic from solid, Equilibrium solubility, Mean, pH 1.2, 37° C.
Counter-ions that a name gives are not always drawn.
MEASURED METRIC: solubility thermodynamic (mg/mL)
The reply should be a number in mg/mL, with the unit left off.

Measured solubility thermodynamic, CCC(=O)C(C[C@H](C)N(C)C)(c1ccccc1)c1ccccc1 [esmethadone HCl] : 58.8

====

Listing of recorded Papp A→B by entry.
TEST NAME: in vitro
EXPERIMENTAL SETUP: human, Caco-2, pH 6.5, Permeability, Rep. 1-3
Counter-ions that a name gives are not always drawn.

COc1cc2c(c(OC)c1OC)-c1ccc(OC)c(=O)cc1[C@@H](NC(C)=O)CC2 | 0.31 ×10⁻⁶ cm/s

// recorded Papp A→B for CNC(=C[N+](=O)[O-])NCCSCc1ccc(CN(C)C)o1 : 0.8 ×10⁻⁶ cm/s

// sample CCC(=O)C(C[C@H](C)N(C)C)(c1ccccc1)c1ccccc1 [esmethadone HCl] , its Papp A→B was 21 ×10⁻⁶ cm/s

====

TESTED TARGET: hERG (Homo sapiens)
TEST NAME: Non GLP hERG channel current study (manual patch)
Assay type: cell-based
EXPERIMENTAL SETUP: human; 3.32 μM (n=4); read-out: Inhibition of hERG current (Mean±SEM)
MEASURED METRIC: inhibition at 3.32 µM (%)
Reply numerically in %, unit not repeated.

// inhibition at 3.32 µM lookup, compound = CCC(=O)C(C[C@@H](C)N(C)C)(c1ccccc1)c1ccccc1 , result: 73.6
